These measurements were taken from ChEMBL document CHEMBL4665633.

target: Protein cereblon/von Hippel-Lindau disease tumor suppressor (Homo sapiens, UniProt P40337+Q96SW2); test: Protac activity at VHL/CRBN in human HeLa cells assessed as CRBN protein abundance at 10 nM after 4 hrs by Western blot analysis relative to DMSO; assay type: cell-based
Sequence (P40337 whole entry, looked up): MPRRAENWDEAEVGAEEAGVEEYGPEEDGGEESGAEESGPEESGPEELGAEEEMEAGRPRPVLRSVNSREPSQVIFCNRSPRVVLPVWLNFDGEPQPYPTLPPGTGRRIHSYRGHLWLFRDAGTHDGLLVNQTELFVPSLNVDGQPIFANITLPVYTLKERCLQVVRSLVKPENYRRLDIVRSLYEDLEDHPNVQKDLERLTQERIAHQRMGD
Sequence (Q96SW2 whole entry, looked up): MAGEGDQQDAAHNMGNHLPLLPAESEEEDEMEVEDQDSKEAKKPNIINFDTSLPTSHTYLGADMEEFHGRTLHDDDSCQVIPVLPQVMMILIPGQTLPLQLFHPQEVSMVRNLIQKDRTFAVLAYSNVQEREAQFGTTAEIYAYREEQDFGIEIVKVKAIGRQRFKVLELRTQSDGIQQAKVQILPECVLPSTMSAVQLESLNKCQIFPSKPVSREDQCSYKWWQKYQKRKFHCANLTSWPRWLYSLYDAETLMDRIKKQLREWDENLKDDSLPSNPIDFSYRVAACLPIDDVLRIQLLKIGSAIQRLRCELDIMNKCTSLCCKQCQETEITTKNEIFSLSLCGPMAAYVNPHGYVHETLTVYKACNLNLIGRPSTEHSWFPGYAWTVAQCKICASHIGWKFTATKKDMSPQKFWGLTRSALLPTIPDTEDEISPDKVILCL
value_kind: Activity (%)

INSERT INTO results (compound, units_symbol, data_value) VALUES
  ('Cc1ncsc1-c1ccc(CNC(=O)[C@@H]2C[C@@H](O)CN2C(=O)[C@@H](NC(=O)COCCCCCOCCOCCCCCOCC(=O)NCCNc2cccc3c2C(=O)N(C2CCC(=O)NC2=O)C3=O)C(C)(C)C)cc1 (some centres undefined)', '%', 81),
  ('Cc1ncsc1-c1ccc(CNC(=O)[C@@H]2C[C@@H](O)CN2C(=O)[C@@H](NC(=O)COCCOCCOCC(=O)NCCNc2cccc3c2C(=O)N(C2CCC(=O)NC2=O)C3=O)C(C)(C)C)cc1 (some centres undefined)', '%', 91),
  ('Cc1ncsc1-c1ccc(CNC(=O)[C@@H]2C[C@@H](O)CN2C(=O)[C@@H](NC(=O)C2(F)CC2)C(C)(C)C)c(OCCOCCOCCOCC(=O)NCCNc2cccc3c2C(=O)N(C2CCC(=O)NC2=O)C3=O)c1 (some centres undefined)', '%', 94),
  ('Cc1ncsc1-c1ccc(CNC(=O)[C@@H]2C[C@@H](O)CN2C(=O)[C@@H](NC(=O)COCCOCCOCCOCCOCCOCCOCCOCCOCC(=O)NCCNc2cccc3c2C(=O)N(C2CCC(=O)NC2=O)C3=O)C(C)(C)C)cc1 (some centres undefined)', '%', 82);

* * *

Measured Activity accompanies every entry in the list below.
target: Protein cereblon/von Hippel-Lindau disease tumor suppressor (Homo sapiens, UniProt P40337+Q96SW2); experiment: Protac activity at VHL/CRBN in human HeLa cells assessed as pVHL19 protein abundance at 10 nM after 4 hrs by Western blot analysis relative to DMSO; format: cell-based
value_kind: Activity

INSERT INTO assay_data (compound, value_kind, data_value) VALUES
  ('Cc1ncsc1-c1ccc(CNC(=O)[C@@H]2C[C@@H](O)CN2C(=O)[C@@H](NC(=O)COCCOCCOCCOCCOCCOCC(=O)NCCNc2cccc3c2C(=O)N(C2CCC(=O)NC2=O)C3=O)C(C)(C)C)cc1 (stereo partly drawn)', 'Activity', '93%'),
  ('Cc1ncsc1-c1ccc(CNC(=O)[C@@H]2C[C@@H](O)CN2C(=O)[C@@H](NC(=O)COCCOCCOCCOCCOCCOCC(=O)N[C@H](C(=O)N2C[C@H](O)C[C@H]2C(=O)NCc2ccc(-c3scnc3C)cc2)C(C)(C)C)C(C)C)cc1', 'Activity', '97%'),
  ('Cc1ncsc1-c1ccc(CNC(=O)[C@@H]2C[C@@H](O)CN2C(=O)[C@@H](NC(=O)COCCOCCOCC(=O)NCCNc2cccc3c2C(=O)N(C2CCC(=O)NC2=O)C3=O)C(C)(C)C)cc1 (stereo partly drawn)', 'Activity', '94%');

* * *

molecular target: Protein cereblon/von Hippel-Lindau disease tumor suppressor (Homo sapiens, UniProt P40337+Q96SW2); assay: Protac activity at VHL/CRBN in human HeLa cells assessed as pVHL19 protein abundance at 10 nM after 4 hrs by Western blot analysis relative to DMSO; assay type: cell-based
value_kind: Activity

INSERT INTO measurements (molecule, data_value) VALUES
  ('Cc1ncsc1-c1ccc(CNC(=O)[C@@H]2C[C@@H](O)CN2C(=O)[C@@H](NC(=O)COCCOCCOCCOCCOCC(=O)NCCNc2cccc3c2C(=O)N(C2CCC(=O)NC2=O)C3=O)C(C)(C)C)cc1 (stereo not given in full)', '92%'),
  ('Cc1ncsc1-c1ccc(CNC(=O)[C@@H]2C[C@@H](O)CN2C(=O)[C@@H](NC(=O)COCCCCCCOCC(=O)NCCNc2cccc3c2C(=O)N(C2CCC(=O)NC2=O)C3=O)C(C)(C)C)cc1 (stereo not given in full)', '101%'),
  ('O=C1CCC(N2C(=O)c3cccc(NCCOCCOCCNc4cccc5c4C(=O)N(C4CCC(=O)NC4=O)C5=O)c3C2=O)C(=O)N1 (stereo not given)', '95%'),
  ('Cc1ncsc1-c1ccc(CNC(=O)[C@@H]2C[C@@H](O)CN2C(=O)[C@@H](NC(=O)C2(F)CC2)C(C)(C)C)c(OCCOCCOCCOCCOCCOCC(=O)NCCNc2cccc3c2C(=O)N(C2CCC(=O)NC2=O)C3=O)c1 (stereo not given in full)', '89%'),
  ('Cc1ncsc1-c1ccc(CNC(=O)[C@@H]2C[C@@H](O)CN2C(=O)[C@@H](NC(=O)COCCOCCOCCOCC(=O)NCCNc2cccc3c2C(=O)N(C2CCC(=O)NC2=O)C3=O)C(C)(C)C)cc1 (stereo not given in full)', '98%');

* * *

biological target: Protein cereblon/von Hippel-Lindau disease tumor suppressor (Homo sapiens, UniProt P40337+Q96SW2); test: Protac activity at VHL/CRBN in human HeLa cells assessed as pVHL30 protein abundance at 10 nM after 4 hrs by Western blot analysis relative to DMSO; type: cell-based
Rule: criterion met for Activity not less than 50%, criterion not met for anything less.

INSERT INTO assay_data (compound, class_assignment) VALUES
  ('Cc1ncsc1-c1ccc(CNC(=O)[C@@H]2C[C@@H](O)CN2C(=O)[C@@H](NC(=O)COCCOCCOCCOCC(=O)NCCNc2cccc3c2C(=O)N(C2CCC(=O)NC2=O)C3=O)C(C)(C)C)cc1 (stereo not given in full)', 'criterion met'),
  ('Cc1ncsc1-c1ccc(CNC(=O)[C@@H]2C[C@@H](O)CN2C(=O)[C@@H](NC(=O)C2(F)CC2)C(C)(C)C)c(OCCOCCOCCOCC(=O)NCCNc2cccc3c2C(=O)N(C2CCC(=O)NC2=O)C3=O)c1 (stereo not given in full)', 'criterion met'),
  ('Cc1ncsc1-c1ccc(CNC(=O)[C@@H]2C[C@@H](O)CN2C(=O)[C@@H](NC(=O)COCCOCCOCC(=O)NCCNc2cccc3c2C(=O)N(C2CCC(=O)NC2=O)C3=O)C(C)(C)C)cc1 (stereo not given in full)', 'criterion met'),
  ('Cc1ncsc1-c1ccc(CNC(=O)[C@@H]2C[C@@H](O)CN2C(=O)[C@@H](NC(=O)COCCOCCOCCOCCOCCOCC(=O)N[C@H](C(=O)N2C[C@H](O)C[C@H]2C(=O)NCc2ccc(-c3scnc3C)cc2)C(C)(C)C)C(C)C)cc1', 'criterion not met'),
  ('Cc1ncsc1-c1ccc(CNC(=O)[C@@H]2C[C@@H](O)CN2C(=O)[C@@H](NC(=O)C2(F)CC2)C(C)(C)SCCCCC(=O)NCCNc2cccc3c2C(=O)N(C2CCC(=O)NC2=O)C3=O)cc1 (stereo not given in full)', 'criterion met');

* * *

Measured Activity accompanies every entry in the list below.
target: Protein cereblon/von Hippel-Lindau disease tumor suppressor (Homo sapiens, UniProt P40337+Q96SW2); assay: Protac activity at VHL/CRBN in human HeLa cells assessed as pVHL30 protein abundance at 10 nM after 4 hrs by Western blot analysis relative to DMSO; format: cell-based
value_kind: Activity (%)

INSERT INTO results (compound, value_kind, data_value) VALUES
  ('Cc1ncsc1-c1ccc(CNC(=O)[C@@H]2C[C@@H](O)CN2C(=O)[C@@H](NC(=O)C2(F)CC2)C(C)(C)C)c(OCCCCC(=O)NCCNc2cccc3c2C(=O)N(C2CCC(=O)NC2=O)C3=O)c1 (stereo not given in full)', 'Activity', 64),
  ('Cc1ncsc1-c1ccc(CNC(=O)[C@@H]2C[C@@H](O)CN2C(=O)[C@@H](NC(=O)COCCCCCOCCOCCCCCOCC(=O)NCCNc2cccc3c2C(=O)N(C2CCC(=O)NC2=O)C3=O)C(C)(C)C)cc1 (stereo not given in full)', 'Activity', 64),
  ('O=C1CCC(N2C(=O)c3cccc(NCCOCCOCCNc4cccc5c4C(=O)N(C4CCC(=O)NC4=O)C5=O)c3C2=O)C(=O)N1 (stereo not given)', 'Activity', 95),
  ('Cc1ncsc1-c1ccc(CNC(=O)[C@@H]2C[C@@H](O)CN2C(=O)[C@@H](NC(=O)COCCOCCOCCOCCOCCOCC(=O)NCCNc2cccc3c2C(=O)N(C2CCC(=O)NC2=O)C3=O)C(C)(C)C)cc1 (stereo not given in full)', 'Activity', 80),
  ('Cc1ncsc1-c1ccc(CNC(=O)[C@@H]2C[C@@H](O)CN2C(=O)[C@@H](NC(=O)C2(F)CC2)C(C)(C)SCCOCCOCCOCC(=O)NCCNc2cccc3c2C(=O)N(C2CCC(=O)NC2=O)C3=O)cc1 (stereo not given in full)', 'Activity', 75);

* * *

Measured Activity accompanies every entry in the list below.
target: Protein cereblon/von Hippel-Lindau disease tumor suppressor (Homo sapiens, UniProt P40337+Q96SW2); test: Protac activity at VHL/CRBN in human HeLa cells assessed as CRBN protein abundance at 10 nM after 4 hrs by Western blot analysis relative to DMSO; type: cell-based
value_kind: Activity (%)

INSERT INTO results (compound, data_value) VALUES
  ('Cc1ncsc1-c1ccc(CNC(=O)[C@@H]2C[C@@H](O)CN2C(=O)[C@@H](NC(=O)C2(F)CC2)C(C)(C)SCCOCCOCCOCCOCCOCC(=O)NCCNc2cccc3c2C(=O)N(C2CCC(=O)NC2=O)C3=O)cc1 (stereo partly drawn)', 82),
  ('Cc1ncsc1-c1ccc(CNC(=O)[C@@H]2C[C@@H](O)CN2C(=O)[C@@H](NC(=O)COCCCCCCOCC(=O)NCCNc2cccc3c2C(=O)N(C2CCC(=O)NC2=O)C3=O)C(C)(C)C)cc1 (stereo partly drawn)', 75),
  ('Cc1ncsc1-c1ccc(CNC(=O)[C@@H]2C[C@@H](O)CN2C(=O)[C@@H](NC(=O)C2(F)CC2)C(C)(C)C)c(OCCCCC(=O)NCCNc2cccc3c2C(=O)N(C2CCC(=O)NC2=O)C3=O)c1 (stereo partly drawn)', 80);
